System: OVCAR-3 ovarian
Assay: NCI-60 one-dose screen, 48 h
Conditions: 10 µM unless noted
About 83,000 compounds went through this panel and 20% of them were active in at least one assay; those are over-represented in the sample as a whole. Activity calls are given as the source filed them. Rule for the calls: active = growth percent below 10; inactive = the rest.
The categories you may choose from are active, inactive

COc1ccccc1/C=C/C(=O)c1nnn(-c2ccc(C(=O)O)cc2)c1C ... inactive
Cc1nn(-c2ccccc2)cc1/C=N/Nc1nc(Nc2ccccc2)nc(Nc2ccc(S(N)(=O)=O)cc2)n1 ... active

Per the assay record, what outcome was assigned to `O=C(Nc1ccc(-c2nc(-c3cccc(O)c3)c(-c3ccnc(Br)c3)[nH]2)cc1)c1ccccc1` ?
inactive

Record: `Oc1ccc(CSc2nnc(-c3ccccc3)o2)c2cccnc12`
inactive

Another molecule to look at: `ClC(Cl)c1nc(-c2cccs2)n2nc(-c3ccccc3)cc2n1`
active
